target: Fibroblast growth factor 10 (Homo sapiens) (UniProt O15520); test: FGF10 binders on small-molecule microarrays, primary screen, biochemical, small-molecule microarray, 635 nm fluorescence (AID 1102); details: FGF10 binding, fluorescence 635 nm, higher = more signal
Sequence (O15520 whole entry, looked up): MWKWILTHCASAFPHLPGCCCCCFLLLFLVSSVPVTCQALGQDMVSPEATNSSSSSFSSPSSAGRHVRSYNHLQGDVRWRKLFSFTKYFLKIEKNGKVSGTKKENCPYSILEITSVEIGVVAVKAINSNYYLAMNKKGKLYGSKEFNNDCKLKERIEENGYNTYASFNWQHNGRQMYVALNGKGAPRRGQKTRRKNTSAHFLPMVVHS
value_kind: composite z-score
I'd appreciate a reply containing only the number, no unit.

compound	composite z-score
CC(C)OC(=O)C=C1C[C@@H](c2ccc(C#N)cc2)O[C@@H](c2ccc(C#N)cc2)O1	1.44

Entry under test: "O=C(CS)NCCCCCNC(=O)[C@H]1C[C@H]2C(=O)N3CCC[C@H]3C(=O)N2[C@H]1c1cccc(OCCO)c1" . Its composite z-score was 1.35

In plain terms, "CC(=O)OC[C@H]1O[C@H](CCON=C[C@@H](C)[C@H](OCc2ccccc2)C(C)C)C=C[C@@H]1OC(C)=O" has a documented composite z-score of 0.2

The measured composite z-score associated with CN1C(=O)C2C(C1=O)C1C=C(CCCO)C2C(c2ccc(CN3CCCC3)cc2)N1C (centres undefined) reads -0.684

Ref: PubChem BioAssay
